- assayed-target: Rac GTPase-activating protein 1 (Homo sapiens) (UniProt Q9H0H5)
- Sequence (Q9H0H5 whole entry, looked up): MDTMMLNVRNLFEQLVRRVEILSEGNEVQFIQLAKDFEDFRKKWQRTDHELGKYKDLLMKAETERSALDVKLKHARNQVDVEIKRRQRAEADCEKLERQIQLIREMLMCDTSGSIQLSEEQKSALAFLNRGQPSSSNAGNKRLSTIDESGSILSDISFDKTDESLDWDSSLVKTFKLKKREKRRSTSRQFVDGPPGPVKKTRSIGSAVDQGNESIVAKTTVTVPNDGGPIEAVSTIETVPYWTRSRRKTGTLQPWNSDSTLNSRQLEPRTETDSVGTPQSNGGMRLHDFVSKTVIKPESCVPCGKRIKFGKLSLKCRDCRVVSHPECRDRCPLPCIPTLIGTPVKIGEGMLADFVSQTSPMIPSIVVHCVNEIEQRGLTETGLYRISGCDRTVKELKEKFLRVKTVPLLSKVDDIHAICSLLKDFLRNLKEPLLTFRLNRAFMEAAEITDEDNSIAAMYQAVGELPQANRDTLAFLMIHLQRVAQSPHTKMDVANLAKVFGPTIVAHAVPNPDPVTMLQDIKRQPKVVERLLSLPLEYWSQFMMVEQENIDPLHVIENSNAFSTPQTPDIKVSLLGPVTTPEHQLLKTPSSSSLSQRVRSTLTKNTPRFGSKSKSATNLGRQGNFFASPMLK
- assay-remarks: blockers of MgcRacGAP-driven Rac1 GTP hydrolysis – biochemical, ADP Hunter fluorescence, primary and confirmatory, confirmation (AID 624330);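 further: fluorescence reports GDP produced by GAP-driven GTP hydrolysis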
- experimental-parameters: MgcRacGAP-stimulated Rac1 GTP hydrolysis, at 30 µM, active compounds read high, GST-tagged Rac1 F28L mutant substrate
The whole screen tested about 340,000 compounds, of which about 2,100 (0.62%) were called active. Not all results are given here. Measured potencies and affinities stand elsewhere.
measure: inhibition (%)
Express your answer in %, writing the number without its unit.

See these solved cases before continuing.
molecule	assayed-target	value-reported
Nc1ccc(-c2nc3ccccc3o2)cc1	Rac GTPase-activating protein 1 (Homo sapiens) (UniProt Q9H0H5)	4.77
C=CCn1c(SCC(=O)c2ccc(O)c(O)c2)nnc1-c1ccc(OC)cc1	Rac GTPase-activating protein 1 (Homo sapiens) (UniProt Q9H0H5)	8.3
CN(CC1COc2ccccc2O1)C(=O)c1ccc(Cl)c(S(=O)(=O)N2CCCCCC2)c1 (stereo unspecified)	Rac GTPase-activating protein 1 (Homo sapiens) (UniProt Q9H0H5)	7.88
CC1CCCC(C)N1CC(O)COC1CCC(C(C)(C)C)CC1 (stereo unspecified)	Rac GTPase-activating protein 1 (Homo sapiens) (UniProt Q9H0H5)	8.37
CCCc1cc(-n2ccnc2)n2c(nc3ccccc32)c1C#N	Rac GTPase-activating protein 1 (Homo sapiens) (UniProt Q9H0H5)	-0.61

Request: Identify measured inhibition obtained with Rac GTPase-activating protein 1 (Homo sapiens) (UniProt Q9H0H5) for `CC(C)(C)c1ccc(C(=O)NCCCN2CCN(CCCNC(=O)c3ccc(C(C)(C)C)cc3)CC2)cc1` .
Result: 0.51

Request: GET inhibition | system: Rac GTPase-activating protein 1 (Homo sapiens) (UniProt Q9H0H5) | item: CCCn1c(=O)c(C(=O)NCC2CCCO2)c(O)c2ccccc21 (stereo unspecified)
Result: 5.01

Request: Look up Rac GTPase-activating protein 1 (Homo sapiens) (UniProt Q9H0H5) data: inhibition of `Nc1ccc(-c2nc3cc(N)ccc3o2)cc1` , then report it.
Result: 17.5

Request: // fetch inhibition; item: `CCOC(=O)C(CO)(NC(C)=O)C(=O)OCC` ; system: Rac GTPase-activating protein 1 (Homo sapiens) (UniProt Q9H0H5)
Result: 3.77

Request: Look up and report inhibition, with Rac GTPase-activating protein 1 (Homo sapiens) (UniProt Q9H0H5) as system, for `C/C(=N\O)c1ccc2c3ccccc3n(C)c2c1`
Result: 11

Request: Write down the reported inhibition (system: Rac GTPase-activating protein 1 (Homo sapiens) (UniProt Q9H0H5)) of `C=CCn1c(SCC(=O)O)nnc1-c1cccc(Cl)c1`
Result: -7.04

====

- assayed-target: Rac GTPase-activating protein 1 (Homo sapiens) (UniProt Q9H0H5)
- assay-remarks: blockers of MgcRacGAP-driven Rac1 GTP hydrolysis – biochemical, ADP Hunter fluorescence, primary and confirmatory, confirmation (AID 624330);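 further: fluorescence reports GDP produced by GAP-driven GTP hydrolysis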
- experimental-parameters: MgcRacGAP-stimulated Rac1 GTP hydrolysis, at 30 µM, active compounds read high, GST-tagged Rac1 F28L mutant substrate
Hit rate of the full screen: of about 340,000 compounds, about 2,100 (0.62%) were called active. The list is a sample of the results. Potency and affinity values are given separately.
measure: inhibition (%)
Give a bare numeral; the unit % is implied.

Solved entries (count: 5):
compound	inhibition [%]
COc1ccc(N2CCN(Cc3nc4sc(C)c(C)c4c(=O)[nH]3)CC2)cc1	-6.7
COc1cc(/C=C/C(=O)OCC(=O)Nc2c(C)n(C)n(-c3ccccc3)c2=O)ccc1OCC#N	3.82
CC(C)[C@H](NC(=O)c1ccc(Cl)cc1)C(=O)Nc1cccc(S(=O)(=O)N2CCOCC2)c1	12.2
COc1cccc(/C=C/C(=O)OC(C)C(=O)Nc2c(C)n(C)n(-c3ccccc3)c2=O)c1 (centres undefined)	1.46
COc1ccc(/C=C/C(=O)c2ccc3c(c2)OCO3)cc1OC	0.8

Request: Look up and state reported inhibition for `CC(=O)c1ccc(Nc2ncnc3c2oc2ccccc23)cc1`
Result: 5.82

Request: Check the records and state inhibition for `CN1C[C@@H]2[C@@H]3C(=O)N(Cc4ccccc4)C(=O)[C@@H]3[C@](C)(C1=O)N2C(=O)c1ccc(Br)cc1`
Result: 5.77

Request: Retrieve inhibition measured for `COc1cc(/C=C/C(=O)c2ccc3c(c2)OCO3)cc(OC)c1OC` and print it.
Result: 9.6

Request: Return value of inhibition for input Cc1c(NC(=O)C(C)OC(=O)/C=C/c2ccccc2)c(=O)n(-c2ccccc2)n1C (centres undefined) , no commentary.
Result: 2.8

====

- assayed-target: Rac GTPase-activating protein 1 (Homo sapiens)
- assay-remarks: blockers of MgcRacGAP-driven Rac1 GTP hydrolysis – biochemical, ADP Hunter fluorescence, primary and confirmatory, confirmation (AID 624330);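 further: fluorescence reports GDP produced by GAP-driven GTP hydrolysis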
- experimental-parameters: MgcRacGAP-stimulated Rac1 GTP hydrolysis, at 30 µM, active compounds read high, GST-tagged Rac1 F28L mutant substrate
The campaign covered roughly 340,000 compounds. About 2,100 (0.62%) were called active. A selection follows. Results with a measured potency or affinity are listed apart.
measure: inhibition

mol-smiles	inhibition
Cc1ccc(CSCC(=O)NCCc2ccccc2)cc1	-4.12% (inactive)

Request: Read off the recorded inhibition for `Cc1ccc(CNC(=O)CSCc2ccccc2)cc1`
Result: 10.2% (inactive)

Request: For the compound `Cc1ccc(S(=O)(=O)N2CCOCC2)cc1C(=O)Nc1nc(-c2ccccn2)cs1` , give its reported inhibition.
Result: 13.7% (inactive)

Request: Specify inhibition for `Cc1cc(NC(=O)c2ccc(C#N)cc2)n(-c2ccccn2)n1` and stop.
Result: 4.99% (inactive)

Request: Please supply the value of reported inhibition for the item `Cc1ccc(CSCCNC(=O)CSCc2ccc([N+](=O)[O-])cc2)cc1`
Result: 6.03% (inactive)

Request: Return the recorded inhibition value; entry: `O=C(N/N=C\c1cccnc1)C1c2ccccc2Oc2ccccc21`
Result: 3.36% (inactive)

====

- assayed-target: Rac GTPase-activating protein 1 (Homo sapiens) (UniProt Q9H0H5)
- assay-remarks: blockers of MgcRacGAP-driven Rac1 GTP hydrolysis – biochemical, ADP Hunter fluorescence, primary and confirmatory, confirmation (AID 624330);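 further: fluorescence reports GDP produced by GAP-driven GTP hydrolysis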
- experimental-parameters: MgcRacGAP-stimulated Rac1 GTP hydrolysis, at 30 µM, active compounds read high, GST-tagged Rac1 F28L mutant substrate
Among all 340,000 compounds or so, about 2,100 (0.62%) were called active. A selection follows. Results with a measured potency or affinity are listed apart.
Reported inhibition values for a set of compounds
Write the answer as a number in %, unit excluded.

compound	assayed-target	measure	value-reported
Cc1ccc(-n2ncc3c(NNC(=O)c4ccco4)ncnc32)c(C)c1	Rac GTPase-activating protein 1 (Homo sapiens) (UniProt Q9H0H5)	inhibition	7.64
COc1ccccc1C(=O)N1CCN(Cc2ccc3c(c2)OCO3)CC1	Rac GTPase-activating protein 1 (Homo sapiens) (UniProt Q9H0H5)	inhibition	2.13
COc1cc(OC)cc(C(=O)N2CCN(Cc3ccccc3C(F)(F)F)CC2)c1	Rac GTPase-activating protein 1 (Homo sapiens) (UniProt Q9H0H5)	inhibition	11.6
COc1cc(C(=O)N2CCN(Cc3ccc4c(c3)OCO4)CC2)cc(OC)c1OC	Rac GTPase-activating protein 1 (Homo sapiens) (UniProt Q9H0H5)	inhibition	13.3
CC(=O)N1/C(=C/c2ccc(N(C)C)cc2)C(=O)c2ccccc21	Rac GTPase-activating protein 1 (Homo sapiens) (UniProt Q9H0H5)	inhibition	10.6

Request: Identify the reported inhibition for the following entry. `CN(C)c1ccc(/C=C2\CCCCC2=O)cc1`
Result: 22

Request: // Input: `COc1cccc(C(=O)N2CCN(Cc3ccccc3Br)CC2)c1` . Output its inhibition only.
Result: 21.5

Request: Return inhibition for the following compound: `CCCCOc1ccc(C(=O)N/C(=C/C=C/c2ccccc2)C(=O)NCCCO)cc1`
Result: 12.1

====

- assayed-target: Rac GTPase-activating protein 1 (Homo sapiens)
- assay-remarks: blockers of MgcRacGAP-driven Rac1 GTP hydrolysis – biochemical, ADP Hunter fluorescence, primary and confirmatory, confirmation (AID 624330);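 further: fluorescence reports GDP produced by GAP-driven GTP hydrolysis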
- experimental-parameters: MgcRacGAP-stimulated Rac1 GTP hydrolysis, at 30 µM, active compounds read high, GST-tagged Rac1 F28L mutant substrate
About 2,100 (0.62%) of roughly 340,000 compounds were called active. A selection follows. Potency and affinity values are given separately.
measure: inhibition (%)
Report the value in % with no unit label.

molecule	measure	value-reported
CC(=O)Nc1cccc(Oc2cc(C#N)c(C#N)cc2N2CCCCCC2)c1	inhibition	5.07
O=C1Nc2ccccc2/C1=N/N=C/c1cccc(O)c1	inhibition	-0.92
COc1ccc(CNC(=O)Cn2cc([N+](=O)[O-])nc2C)cc1	inhibition	2.29

Request: Report inhibition, nothing else, for this molecule: `O=C(Cn1ncn2c(cc3ccccc32)c1=O)NCCCc1ccccc1`
Result: 1.38

Request: Annotate the molecule `O=C(CNC(=O)c1ccc(Br)o1)Nc1ccc(F)c(S(=O)(=O)N2CCOCC2)c1` with its measured inhibition.
Result: 5.58

This collection of values is drawn from PubChem BioAssay AID624330.
